- SYSTEM NAME: MarR_73 S28A (Variovorax paradoxus, UniProt C5CSP2, S28A)
- MEASUREMENT NOTES: biochemical
MEASUREMENT LABEL: Kd (nM)
Please reply with the bare figure in nM and do not write the unit itself.

Task: Entry under review: `O=C(O)Cc1c[nH]c2ccccc12` . Reported Kd?
Result: 2400

====

- SYSTEM NAME: Variovorax paradoxus CL14 MarR_73 (Variovorax paradoxus, UniProt C5CSP2)
- Sequence (C5CSP2 entry or part of it): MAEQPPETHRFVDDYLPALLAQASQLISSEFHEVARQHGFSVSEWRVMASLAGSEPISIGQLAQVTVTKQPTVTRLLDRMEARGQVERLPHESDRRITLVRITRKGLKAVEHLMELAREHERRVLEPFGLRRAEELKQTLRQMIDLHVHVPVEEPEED
- MEASUREMENT NOTES: biochemical
- Type: binding
- CONDITIONS USED: ITC, 25 °C, 20 mM HEPES pH 7.4, 50 mM NaCl, 0.5% DMSO; mean of two measurements ± standard error; read-out: KD
MEASUREMENT LABEL: pKd
pKd field: float, defined as -log10 of concentration (mol/L).

Task: # query: pKd of entry `O=C(O)COc1ccc(Cl)cc1Cl`
Result: 4.96

====

- SYSTEM NAME: Variovorax paradoxus CL14 MarR_73 (Variovorax paradoxus, UniProt C5CSP2)
- MEASUREMENT NOTES: biochemical
- Assay type: binding
- CONDITIONS USED: ITC, 25 °C, 20 mM HEPES pH 7.4, 50 mM NaCl, 0.5% DMSO; mean of two measurements ± standard error
MEASUREMENT LABEL: N (ligand binding stoichiometry to the MarR monomer)

MOLECULE: O=C(O)Cc1ccccc1
OBSERVED MEASUREMENT: 0.79 ± 0.02
--
MOLECULE: O=C(O)c1ccccc1
OBSERVED MEASUREMENT: 0.80 ± 0.01
--
MOLECULE: O=C(O)Cc1c[nH]c2ccc(O)cc12 [5-Hydroxyindole-3-Acetic Acid]
OBSERVED MEASUREMENT: 0.78 ± 0.25
--
MOLECULE: Oc1ccccc1O [Catachol (1,2-Dihydroxybenzene), 1,2-Dihydroxybenzene]
OBSERVED MEASUREMENT: 0.76 ± 0.01

Task: Value wanted: N (ligand binding stoichiometry to the MarR monomer) (Variovorax paradoxus CL14 MarR_73 (Variovorax paradoxus, UniProt C5CSP2)) of entry `O=C(O)COc1ccc(Cl)cc1Cl`
Result: 1.40 ± 0.01

====

- SYSTEM NAME: Acinetobacter baumannii MarR_Ab (Acinetobacter baumannii, UniProt A0ABX6CGA9)
MEASUREMENT LABEL: pKd
Just so you know, pKd here is -log10 of the concentration in molar units; reply with that number alone.

Task: # input compound: O=C(O)Cc1c[nH]c2ccccc12 [IAA, indole-3-acetic acid] ; wanted: its pKd
Result: 5.89

====

- SYSTEM NAME: Variovorax paradoxus CL14 MarR_73 (Variovorax paradoxus)
- MEASUREMENT NOTES: biochemical
- Type: binding
MEASUREMENT LABEL: Kd (µM)
// return numeric value only (unit: µM, not printed)

Worked cases, Kd given:
COMPOUND: O=C(O)CCc1c[nH]c2ccccc12
UNIT SPEC: µM
Kd: 17
//
COMPOUND: Oc1ccccc1O [Catachol (1,2-Dihydroxybenzene), 1,2-Dihydroxybenzene]
UNIT SPEC: µM
Kd: 13
//
COMPOUND: O=C(O)Cc1ccccc1
UNIT SPEC: µM
Kd: 10

Task: Param item = O=C(O)Cc1c[nH]c2ccc(O)cc12 [5-Hydroxyindole-3-Acetic Acid] ; retrieve measured Kd.
Result: 10

Task: I would be grateful if you could share the reported Kd for `O=C(O)c1c[nH]c2ccccc12` .
Result: 4.6

Task: Fill in the blank: the reported Kd of `O=C(O)Cc1cccc2ccccc12` is ____.
Result: 0.33

Task: I'd like to know its Kd. The compound in question is `O=C(O)c1ccccc1`
Result: 13

Task: # Kd lookup, item `O=C(O)c1ccccc1O`
Result: 14

Task: Can you look up the measured Kd of `O=C(O)CCCc1c[nH]c2ccccc12` for me?
Result: 18

Task: What Kd value was documented for this compound, `Nc1c(Cl)c(Cl)nc(C(=O)O)c1Cl` ?
Result: 16
